src = patent US20250195521A1

biological target: KRAS G13C (Homo sapiens (Human), UniProt P01116+P62937, G13C); assay: Ras-Raf disruption/FRET/MOA assay (BRAF RBD, Cyclophilin A); type: biochemical; conditions: read-out: KRAS G13C FRET IC50
Sequence (P01116 other isoform, or with tags, fused parts or gaps G13C): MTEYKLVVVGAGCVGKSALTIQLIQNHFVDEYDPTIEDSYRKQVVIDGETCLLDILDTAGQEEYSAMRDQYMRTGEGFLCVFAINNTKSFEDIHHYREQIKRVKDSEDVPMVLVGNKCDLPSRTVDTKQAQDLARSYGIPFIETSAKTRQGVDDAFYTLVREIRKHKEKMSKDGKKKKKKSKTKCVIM
Sequence (P62937 whole entry): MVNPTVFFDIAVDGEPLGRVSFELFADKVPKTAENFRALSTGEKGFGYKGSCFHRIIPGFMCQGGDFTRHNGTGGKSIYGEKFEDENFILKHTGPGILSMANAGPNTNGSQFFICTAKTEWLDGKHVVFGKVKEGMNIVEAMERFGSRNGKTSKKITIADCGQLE
Measured IC50 by item

molecule	IC50
CCO[C@@H]1c2nc(cs2)-c2ccc3c(c2)c(c(-c2cccnc2[C@H](C)OC)n3CC)CC(C)(C)COC(=O)[C@@H]2CCCN(N2)C(=O)[C@H]1NC(=O)[C@H]1[C@H](C)[C@@H]1c1cn(C)cn1 [Compound A507]	10 to 100 nM
CCn1c(-c2cnccc2COC)c2c3cc(ccc31)-c1cc(O)cc(c1)C[C@H](NC(=O)[C@H](C(C)C)N(C)C(=O)[C@H]1CCCN1C)C(=O)N1CCC[C@H](N1)C(=O)OCC(C)(C)C2 [Compound A83]	100 to 1000 nM
CCn1c(-c2cccnc2[C@H](C)OC)c2c3cc(ccc31)-c1cccc(c1)C[C@H](NC(=O)[C@H](C(C)C)N(C)C(=O)[C@H]1OCC[C@H]1c1ccccc1)C(=O)N1CCC[C@H](N1)C(=O)OCC(C)(C)C2 [Compound A429]	> 10000 nM
CCn1c(-c2cnccc2COC)c2c3cc(ccc31)-c1cc(O)cc(c1)C[C@H](NC(=O)[C@H](C(C)C)N(C)C(=O)C1CN(C)C1)C(=O)N1CCC[C@H](N1)C(=O)OCC(C)(C)C2 [Compound A88]	10 to 100 nM
CCn1c(-c2cccnc2[C@H](C)OC)c2c3cc(ccc31)-c1csc(n1)C[C@H](NC(=O)[C@H](C(C)C)N(C)C(=O)N1CC(C(=O)O)C1)C(=O)N1CCC[C@H](N1)C(=O)OCC(C)(C)C2 [Compound A344]	100 to 1000 nM
CCn1c(-c2cnccc2COC)c2c3cc(ccc31)-c1cc(O)cc(c1)C[C@H](NC(=O)[C@H](C(C)C)N(C)C(=O)[C@H]1CCN(C3CCOCC3)C1)C(=O)N1CCC[C@H](N1)C(=O)OCC(C)(C)C2 [Compound A45]	100 to 1000 nM
CCn1c(-c2cccnc2[C@H](C)OC)c2c3cc(ccc31)-c1csc(n1)C[C@H](NC(=O)[C@H](C(C)C)N(C)C(=O)[C@H]1CCN(C(C)=O)C1)C(=O)N1CCC[C@H](N1)C(=O)OCC(C)(C)C2 [Compound A244]	1000 to 10000 nM
CCn1c(-c2cnccc2COC)c2c3cc(ccc31)-c1cc(O)cc(c1)C[C@H](NC(=O)[C@@H](NC(C)=O)C(C)C)C(=O)N1CCC[C@H](N1)C(=O)OCC(C)(C)C2 [Compound A58]	1000 to 10000 nM
CCn1c(-c2cccnc2[C@H](C)OC)c2c3cc(ccc31)-c1cc(O)cc(c1)C[C@H](NC(=O)[C@H](C(C)C)N(C)C(=O)[C@@H]1C[C@@H]1C)C(=O)N1CCC[C@H](N1)C(=O)OCC(C)(C)C2 [Compound A223]	10 to 100 nM

* * *

biological target: KRAS G12D (Homo sapiens (Human), UniProt P01116+P62937, G12D); experiment: Ras-Raf disruption/FRET/MOA assay (BRAF RBD, Cyclophilin A); assay type: biochemical; conditions: read-out: KRAS G12D FRET IC50
Sequence (P01116 other isoform, or with tags, fused parts or gaps G12D, one chain of several): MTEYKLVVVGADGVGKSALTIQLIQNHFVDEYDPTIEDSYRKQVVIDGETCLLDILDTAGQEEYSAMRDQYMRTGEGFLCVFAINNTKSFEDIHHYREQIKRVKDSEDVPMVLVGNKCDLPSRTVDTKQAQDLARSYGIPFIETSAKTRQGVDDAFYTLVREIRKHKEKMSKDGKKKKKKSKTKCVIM

molecule	target.system	IC50
CCn1c(-c2cccnc2[C@H](C)OC)c2c3cc(ccc31)-c1csc(n1)C[C@H](NC(=O)[C@H](C(C)C)N(C)C(=O)N(C)[C@H]1CCN(C)C1)C(=O)N1CCC[C@H](N1)C(=O)OCC(C)(C)C2	KRAS G12D (Homo sapiens (Human), UniProt P01116+P62937, G12D)	0.1 to 1 µM
CCn1c(-c2cccnc2[C@H](C)OC)c2c3cc(ccc31)-c1cc(O)cc(c1)C[C@H](NC(=O)[C@H](C(C)C)N(C)C(=O)C1CC13CNC3)C(=O)N1CCC[C@H](N1)C(=O)OCC(C)(C)C2 (stereo partly shown)	KRAS G12D (Homo sapiens (Human), UniProt P01116+P62937, G12D)	0.01 to 0.1 µM
CCn1c(-c2cccnc2[C@H](C)OC)c2c3cc(ccc31)-c1csc(n1)C[C@H](NC(=O)[C@H](C(C)C)N1CCC3(CN(S(C)(=O)=O)C3)C1=O)C(=O)N1CCC[C@H](N1)C(=O)OCC(C)(C)C2	KRAS G12D (Homo sapiens (Human), UniProt P01116+P62937, G12D)	> 10 µM
CCn1c(-c2cccnc2[C@H](C)OC)c2c3cc(ccc31)-c1cc(O)cc(c1)C[C@H](NC(=O)[C@H](C(C)C)N(C)C(=O)C1CC3(CCOCC3)CO1)C(=O)N1CCC[C@H](N1)C(=O)OCC(C)(C)C2 (stereo partly shown)	KRAS G12D (Homo sapiens (Human), UniProt P01116+P62937, G12D)	0.1 to 1 µM
CCn1c(-c2cccnc2[C@H](C)OC)c2c3cc(ccc31)-c1cc(O)cc(c1)C[C@H](NC(=O)[C@H](C(C)C)N(C)C(=O)C1CC(C)C1)C(=O)N1CCC[C@H](N1)C(=O)OCC(C)(C)C2 (stereo partly shown)	KRAS G12D (Homo sapiens (Human), UniProt P01116+P62937, G12D)	0.1 to 1 µM
CCn1c(-c2cccnc2[C@H](C)OC)c2c3cc(ccc31)-c1csc(n1)C[C@H](NC(=O)[C@H](C(C)C)N(C)C(=O)[C@H]1[C@@H]3CNC[C@@H]31)C(=O)N1CCC[C@H](N1)C(=O)OCC(C)(C)C2	KRAS G12D (Homo sapiens (Human), UniProt P01116+P62937, G12D)	1 to 10 µM
CCn1c(-c2cccnc2[C@H](C)OC)c2c3cc(ccc31)-c1csc(n1)C[C@H](NC(=O)[C@H](C(C)C)N(C)C(=O)N1CC(O)(CN(C)C)C1)C(=O)N1CCC[C@H](N1)C(=O)OCC(C)(C)C2	KRAS G12D (Homo sapiens (Human), UniProt P01116+P62937, G12D)	1 to 10 µM

* * *

molecular target: K-Ras G12C(GMP-PNP) binding to BRAF RBD (Homo sapiens (Human), UniProt P01116+P62937, G12C); assay: Disruption of BRAF RBD interaction with K-Ras (FRET / MOA assay), K-Ras G12C; assay type: biochemical; details: read-out: KRAS G12C FRET IC50
Sequence (P01116 other isoform, or with tags, fused parts or gaps G12C, one chain of several): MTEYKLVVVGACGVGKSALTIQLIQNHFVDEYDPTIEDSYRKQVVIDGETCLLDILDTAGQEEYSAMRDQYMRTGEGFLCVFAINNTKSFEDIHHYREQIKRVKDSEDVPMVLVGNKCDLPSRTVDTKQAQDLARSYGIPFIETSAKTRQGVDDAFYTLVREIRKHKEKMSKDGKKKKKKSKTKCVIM
Measured IC50 by item
endpoint.name: IC50

compound	endpoint.name	reading
C=CC(=O)N1CC[C@H](C(=O)N(C)[C@H](C(=O)NC2C[C@@H]3CN(CCO3)c3ccc4c(c3)c(c(-c3cccnc3COC)n4CC)CC(C)(C)COC(=O)[C@@H]3CCCN(N3)C2=O)C(C)C)C1 (stereo partly shown) [Compound A318]	IC50	> 10000 nM
CCn1c(-c2cccnc2[C@H](C)OC)c2c3cc(ccc31)C1=C[C@@H](O)CN(C1)C[C@H](NC(=O)[C@H]1[C@H](C)[C@@H]1C)C(=O)N1CCC[C@H](N1)C(=O)OCC(C)(C)C2 [Compound A424]	IC50	100 to 1000 nM
CCn1c(-c2cccnc2[C@H](C)OC)c2c3cc(ccc31)-c1csc(n1)C[C@H](NC(=O)[C@H](C1CCCC1)N(C)C(=O)N1CCN(C)CC1)C(=O)N1CCC[C@H](N1)C(=O)OCC(C)(C)C2 [Compound A525]	IC50	10 to 100 nM
C=CC(=O)N(C)CCN1CCN(C(=O)N(C)[C@H](C(=O)N[C@H]2CN3CCC=C(C3)c3ccc4c(c3)c(c(-c3cccnc3[C@H](C)OC)n4CC)CC(C)(C)COC(=O)[C@@H]3CCCN(N3)C2=O)C(C)C)C[C@@H]1C [Compound A570]	IC50	100 to 1000 nM
